tested on: lymphoma and epithelial cancer cell lines; assay: Cytotoxicity across lymphoma and epithelial cancer cell lines; assay type: cell-based; details: 72 h, read-out: cytotoxicity IC50 range
MEASURED_ATTRIBUTE: IC50

Query: Item Cc1ccc(-c2[nH]oc(=O)c2Cc2c(O)ccc3cc(Br)ccc23)cc1 [compound 24] : provide IC50
Reply: 3 to 7 µM

====

test: Cytotoxicity in nontransformed B-cell lines; assay type: cell-based; conditions: human, nontransformed EBV-immortalized B-cell lines B1 and B2
MEASURED_ATTRIBUTE: IC50 at 72 h

Query: Tell me measured IC50 at 72 h for Cc1ccc(-c2[nH]oc(=O)c2Cc2c(O)ccc3cc(Br)ccc23)cc1 please.
Reply: 22 to 28 µM
